# Test target: Replication protein A 70 kDa DNA-binding subunit (Homo sapiens, UniProt P27694)
# Sequence (P27694 whole entry, the tested form may be a part): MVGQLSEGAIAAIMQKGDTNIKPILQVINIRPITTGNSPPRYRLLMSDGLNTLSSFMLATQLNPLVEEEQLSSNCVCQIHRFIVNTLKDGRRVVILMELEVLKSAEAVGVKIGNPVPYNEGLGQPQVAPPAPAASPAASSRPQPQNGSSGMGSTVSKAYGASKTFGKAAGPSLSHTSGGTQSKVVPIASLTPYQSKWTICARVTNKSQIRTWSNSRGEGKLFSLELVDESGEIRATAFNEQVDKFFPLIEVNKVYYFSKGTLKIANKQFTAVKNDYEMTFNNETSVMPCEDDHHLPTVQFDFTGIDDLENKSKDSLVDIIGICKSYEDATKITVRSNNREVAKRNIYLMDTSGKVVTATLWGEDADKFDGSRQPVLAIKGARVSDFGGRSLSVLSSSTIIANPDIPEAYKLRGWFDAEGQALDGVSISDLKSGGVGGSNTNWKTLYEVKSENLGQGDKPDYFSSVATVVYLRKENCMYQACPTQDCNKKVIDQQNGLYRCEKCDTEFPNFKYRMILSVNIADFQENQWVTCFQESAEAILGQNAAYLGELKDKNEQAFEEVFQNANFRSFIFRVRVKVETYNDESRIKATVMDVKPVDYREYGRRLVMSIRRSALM
# Experiment notes: Binding affinity to RPA70N (1 to 120) site1 (unknown origin) expressed in Escherichia coli BL21-DE3 cells by NMR spectroscopy
pKd: −log10 of the molar value.
Readout type: pKd

• O=C(O)c1ccc(-c2ccc(F)c(Cl)c2)o1 = 3.15
• Cc1cccc(-n2nc(C(=O)O)cc2-c2ccccc2)c1 = 3.24
• Cc1cccc2c(-c3ccccc3)c(C(=O)O)[nH]c12 = 3.19

---

# Test target: Replication protein A 70 kDa DNA-binding subunit (Homo sapiens, UniProt P27694)
# Experiment notes: Binding affinity to RPA70N (1 to 120) (unknown origin) expressed in Escherichia coli BL21-DE3 cells by NMR spectroscopy
pKd: −log10 of the molar value.
Readout type: pKd

[P] Cc1cccc(-n2nc(C(=O)O)cc2-c2ccc(OCc3ccc(-c4ccc(C(=O)O)o4)cc3)cc2)c1
[Q] O=C(O)c1cc(-c2ccc(CNC(=O)c3ccc(-c4ccc(C(=O)O)o4)cc3Cl)cc2)n(-c2ccc(Cl)c(Cl)c2)n1
Sorting by pKd in descending order, would P or Q appear first? Answer by quoting the chosen item's label.
Q

---

# Test target: Replication protein A 70 kDa DNA-binding subunit (Homo sapiens, UniProt P27694)
# Experiment notes: Binding affinity to RPA70N (1 to 120) (unknown origin) expressed in Escherichia coli BL21-DE3 cells by FPA assay
pKd: −log10 of the molar value.
Readout type: pKd

[P] Cc1cccc(-n2nc(C(=O)O)cc2-c2ccc(OCc3ccc(-c4ccc(C(=O)O)o4)cc3)cc2)c1
[Q] O=C(O)c1cc(-c2ccc(CNC(=S)c3ccc(-c4ccc(C(=O)O)o4)cc3Cl)cc2)n(-c2ccc(Cl)c(Cl)c2)n1
Which record shows the lower pKd: the first, P , or the second, Q ? Answer by quoting the chosen item's label.
P
(P: 4.70, Q: 6.72)

---

# Test target: Replication protein A 70 kDa DNA-binding subunit (Homo sapiens, UniProt P27694)
# Experiment notes: Displacement of FITC-ss-DNA from RPA70NAB domain (unknown origin) by FPA assay
Readout type: Kd (nM)
Field format: number, assumed nM, no unit text.

Value of Kd reported for the molecule "O=C(O)c1cc(-c2ccc(CNC(=S)c3ccc(-c4ccc(C(=O)O)o4)cc3Cl)cc2)n(-c2ccc(Cl)c(Cl)c2)n1" is 2300

These entries and their values trace back to ChEMBL document CHEMBL3085693.
